FYI, the data here is from ChEMBL document CHEMBL1201862.

assay: Late stage assay provider results from the probe development effort to identify inhibitors of Protein Phosphatase Methylesterase 1 (PME-1): luminescence-based biochemical dose response assay to determine cytotoxicity of inhibitor compounds. [Related pubchem assays (depositor defined):AID2130, AID2143, AID2171, AID2174, AID2177, AID2232, AID2233, AID2291, AID2363, AID2365, AID2366, AID2368, AID2369, AID2371, AID463124, AID463130, AID463131, AID463132, AID463146, AID463149] Panel member name: Fetal Calf Serum; format: toxicity
The source made the active and inactive calls.
MEASUREMENT KIND: CC50

Which value of CC50 has been reported for CC[C@]1(c2ccccc2C)C(=O)N(C(=O)OC)N1C(=O)OC in the records? > 50 µM (inactive)

----------
Measured AC50 on Cytochrome P450 2C9 (Homo sapiens) follows.
Sequence (P11712 whole entry): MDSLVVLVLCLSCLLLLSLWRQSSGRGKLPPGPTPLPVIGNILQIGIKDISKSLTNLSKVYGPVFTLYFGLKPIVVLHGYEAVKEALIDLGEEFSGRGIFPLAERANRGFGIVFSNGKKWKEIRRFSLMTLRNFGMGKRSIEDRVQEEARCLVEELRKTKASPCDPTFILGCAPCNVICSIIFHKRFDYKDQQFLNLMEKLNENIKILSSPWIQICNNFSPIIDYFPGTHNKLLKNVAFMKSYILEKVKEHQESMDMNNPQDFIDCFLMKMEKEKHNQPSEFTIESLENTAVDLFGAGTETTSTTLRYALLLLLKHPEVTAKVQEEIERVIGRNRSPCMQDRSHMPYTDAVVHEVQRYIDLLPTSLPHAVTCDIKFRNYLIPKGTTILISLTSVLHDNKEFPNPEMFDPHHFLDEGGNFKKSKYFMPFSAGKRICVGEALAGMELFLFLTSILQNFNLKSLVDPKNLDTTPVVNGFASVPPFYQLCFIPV

Brc1ccccc1OCCOCCOc1cccc2cccnc12 ... 11.2 µM (inconclusive)

Notebook: pull reported AC50 for Cytochrome P450 2C9 (Homo sapiens), entry Cn1cc(C2=C(c3ccc(Cl)cc3Cl)C(=O)NC2=O)c2ccccc21 31.6 µM (inconclusive)

Notebook: pull reported AC50 for Cytochrome P450 2C9 (Homo sapiens), entry O=C(CN1C(=O)c2ccccc2S1(=O)=O)Nc1ccccc1 12.6 µM (inconclusive)

Notebook: pull reported AC50 for Cytochrome P450 2C9 (Homo sapiens), entry CSc1nc(-c2ccccc2)nn1C(=O)c1ccccc1 10 µM (inconclusive)

Notebook: pull reported AC50 for Cytochrome P450 2C9 (Homo sapiens), entry COc1cccc(-c2cc(C(F)(F)F)nc(N3CCN(c4ccccc4)CC3)n2)c1 0.631 µM (inconclusive)

Notebook: pull reported AC50 for Cytochrome P450 2C9 (Homo sapiens), entry CCOC(=O)CSc1n[nH]c(NC(=O)c2cccc(C)c2)n1 25.1 µM (inconclusive)

Notebook: pull reported AC50 for Cytochrome P450 2C9 (Homo sapiens), entry Cc1ccc(NC(=O)c2cc([N+](=O)[O-])ccc2NCc2cccnc2)cc1Cl 0.251 µM (inconclusive)

----------
IC50 values for the compounds below.
target: Melanocortin receptor 4 (Homo sapiens, UniProt P32245); test: inhibitors of MC4R cAMP signaling – cell-based, TR-FRET, biased antagonists, dose response (AID 602298); assay type: functional;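 further: antagonist potency against agonist-stimulated cAMP production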
Sequence (P32245 whole entry): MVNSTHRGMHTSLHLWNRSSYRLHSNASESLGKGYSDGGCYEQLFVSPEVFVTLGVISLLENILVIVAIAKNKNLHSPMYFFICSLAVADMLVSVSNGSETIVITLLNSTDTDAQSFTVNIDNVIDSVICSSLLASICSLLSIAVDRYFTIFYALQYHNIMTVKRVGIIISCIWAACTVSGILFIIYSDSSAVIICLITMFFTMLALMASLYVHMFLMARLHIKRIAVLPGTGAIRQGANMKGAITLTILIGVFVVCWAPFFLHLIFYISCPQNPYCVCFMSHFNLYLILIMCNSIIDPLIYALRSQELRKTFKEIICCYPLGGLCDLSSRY
Active and inactive are the calls of the source.

Which value of IC50 has been reported for COc1ccc(CN2Cc3cnnn3-c3ccccc3C2C#N)cc1 (centres undefined) in the records? 26.3 µM (inactive)

Which value of IC50 has been reported for CC(C)C1CC(CCNCc2ccc3c(c2)OCO3)(c2ccccc2)CCO1 (centres undefined) in the records? > 64.6 µM (inactive)

Which value of IC50 has been reported for O=C(/C=C/c1ccc(Cl)cc1)c1ccc([N+](=O)[O-])o1 in the records? > 64.6 µM (inactive)

Which value of IC50 has been reported for CC(C)Cc1nc2oc3c(Cl)ncnc3c2c2c1CCC2 in the records? > 64.6 µM (inactive)

----------
IC50 values for the compounds below.
biological target: Nonstructural protein 1 (Influenza A virus); assay type: functional, Influenza A virus (A/California/07/2009(H1N1))
Sequence (Q194T2 whole entry): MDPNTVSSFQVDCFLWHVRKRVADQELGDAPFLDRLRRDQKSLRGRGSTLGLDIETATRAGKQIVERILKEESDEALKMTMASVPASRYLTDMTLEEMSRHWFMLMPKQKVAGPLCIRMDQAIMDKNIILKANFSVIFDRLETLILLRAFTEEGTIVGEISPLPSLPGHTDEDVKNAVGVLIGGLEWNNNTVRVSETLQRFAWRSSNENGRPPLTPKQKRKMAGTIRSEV
Activity calls are given as the source filed them.

These solved cases illustrate the format of a correct answer.
CCN1C(=O)/C(=C2/C=Cc3ccccc3N2CC)SC1=S ... 9.45 µM (active)
C/C(=N\NC(=O)C(C)Oc1ccc([N+](=O)[O-])cc1)c1ccccn1 (configuration not stated) ... 6.88 µM (active)
COc1cccc(-c2nn(-c3ccccc3)cc2/C=C(\C#N)C(=O)NCCCn2ccnc2)c1 ... 74.2 µM (active)
C/C(=N/NC(=O)c1ccc(C(C)(C)C)cc1)c1ccccn1 ... 6.97 µM (active)
CCN1CCN(C(c2cccnc2)c2cc(Cl)c3cccnc3c2O)CC1 (configuration not stated) ... 17.8 µM (active)

Which value of IC50 has been reported for O=C(N/N=C/c1ccccc1O)c1cc[n+]([O-])cc1 in the records? 4.49 µM (active)

Which value of IC50 has been reported for CCOC(=O)C1=C(C)N=C2c3ccccc3C(=O)C2C1c1ccc(C)cc1 (configuration not stated) in the records? > 100 µM (active)

----------
CC50 values for the compounds below.
assay: viability of uninfected HEp-2 cells – cell-based, HTS, cytotoxicity control for RSV inhibitor project, dose response (AID 2410); assay type: functional; conditions: human respiratory syncytial virus
Active and inactive are the calls of the source.

These solved cases illustrate the format of a correct answer.
N#CC1=C(N)OC2=C(CC/C2=C\c2ccc(F)cc2)C1c1ccc(F)cc1 (centres undefined) ... 8.44 µM (active)
COc1ccccc1NC(=O)COc1cccc2c1CCNC2=O ... 39.1 µM (active)
COc1ccc(-c2cc3ccc(O)cc3oc2=O)cc1 ... 49.4 µM (active)

Shift focus to the following entry.
Which value of CC50 has been reported for Nc1ccccc1Nc1cc(-c2ccccc2)nn1-c1cccc(Cl)c1 in the records? 26.3 µM (active)

----------
target: Replicative DNA helicase DnaB (Mycobacterium tuberculosis, UniProt P9WMR3); assay: DnaB intein splicing inhibitors, dose response, biochemical, cell-free fluorescence (AID 449749); type: functional
The source made the active and inactive calls.
Parameter call: string, one of true = active, false = inactive

The examples below pair each entry with its known result.
COC(=O)c1cc(C)nc2c1C(=O)C(=O)C=C2N1CCOCC1 ... true
COc1ccc2nc(C)cc(Sc3nc4ccccc4s3)c2c1 ... true
O=S(=O)(Nc1ccc(-n2cnnn2)cc1)c1ccc(F)c(F)c1F ... false
Cc1cccc(C(=O)NC2C(=O)NNC2c2ccc(Cl)cc2)c1 (stereo not given) ... true
O=C(O)CC1SC(N/N=C/c2ccc(-c3ccc(Cl)cc3[N+](=O)[O-])o2)=NC1=O (stereo not given) ... false

Identify the outcome logged in this assay for the compound shown: N#Cc1c(C#N)c(O)c2ccccc2c1O false

Identify the outcome logged in this assay for the compound shown: COc1cc(C2C(C#N)=C(N)Oc3[nH]nc(C)c32)ccc1OC(=O)c1ccccc1 (stereo not given) true

Identify the outcome logged in this assay for the compound shown: COc1ccc(-c2csc(CCN3N=C(C)CC3=O)n2)cc1 true

Identify the outcome logged in this assay for the compound shown: CC1CCc2c(c3ccccc3n2C(=O)CCl)C1 (stereo not given) false

Identify the outcome logged in this assay for the compound shown: CCN1CCN(C(c2cccnc2)c2cc(Cl)c3cccnc3c2O)CC1 (stereo not given) false

----------
AC50 values for the molecules below.
target: Cytochrome P450 2C19 (Homo sapiens); experiment: Cytochrome panel assay with activity outcomes. Panel member name: p450-cyp2c19 Compounds with AC50 equal or less than 10 uM are considered active; type: functional; conditions: read-out: AC50
Sequence (P33261 whole entry): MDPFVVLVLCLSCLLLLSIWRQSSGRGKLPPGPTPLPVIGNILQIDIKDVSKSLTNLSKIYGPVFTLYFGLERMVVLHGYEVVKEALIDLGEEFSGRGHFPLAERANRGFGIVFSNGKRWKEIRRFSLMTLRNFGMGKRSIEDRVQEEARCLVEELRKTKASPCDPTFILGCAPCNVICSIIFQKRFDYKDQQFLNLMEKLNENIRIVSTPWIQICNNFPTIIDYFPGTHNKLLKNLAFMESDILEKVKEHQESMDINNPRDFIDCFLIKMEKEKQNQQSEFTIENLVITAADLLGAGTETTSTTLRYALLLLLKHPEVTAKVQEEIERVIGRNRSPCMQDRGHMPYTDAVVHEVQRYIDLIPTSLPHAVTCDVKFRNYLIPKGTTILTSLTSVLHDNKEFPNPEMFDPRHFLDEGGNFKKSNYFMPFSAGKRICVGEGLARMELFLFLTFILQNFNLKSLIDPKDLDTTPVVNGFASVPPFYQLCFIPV

Which value of AC50 has been reported for COc1ccc(CCNC(=O)c2ccc3c(=O)n(Cc4ccco4)c(=S)[nH]c3c2)cc1OC in the records? 7.94 µM (inconclusive)

Which value of AC50 has been reported for Cc1ccc(-c2cc(C(F)F)n3ncc(C(=O)Nc4c(C)nn(Cc5c(Cl)cccc5Cl)c4C)c3n2)cc1 in the records? 7.94 µM (inconclusive)

Which value of AC50 has been reported for CC(C)CC(=O)C[C@H](O)C(Cl)(Cl)Cl in the records? 7.94 µM (inconclusive)

----------
IC50 values for the molecules below.
biological target: Induced myeloid leukemia cell differentiation protein Mcl-1 (Homo sapiens); assay type: functional
Sequence (Q07820 whole entry): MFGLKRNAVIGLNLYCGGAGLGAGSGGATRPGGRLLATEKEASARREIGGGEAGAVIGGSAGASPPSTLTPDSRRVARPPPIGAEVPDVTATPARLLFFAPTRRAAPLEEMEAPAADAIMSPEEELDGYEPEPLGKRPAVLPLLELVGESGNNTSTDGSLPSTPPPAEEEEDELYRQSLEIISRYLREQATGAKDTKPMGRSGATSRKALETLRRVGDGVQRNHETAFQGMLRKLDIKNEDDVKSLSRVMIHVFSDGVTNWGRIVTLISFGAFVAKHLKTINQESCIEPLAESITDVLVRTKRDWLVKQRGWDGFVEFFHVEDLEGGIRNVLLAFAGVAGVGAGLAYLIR
The source made the active and inactive calls.

These solved cases illustrate the format of a correct answer.
O=[N+]([O-])c1ccc(-c2cc(-c3ccc(Cl)cc3)n[nH]2)cc1 ... 2.5 µM (active)
CC(=O)c1cc(C#N)c(SCc2ccccn2)nc1C ... 5.73 µM (not active)
Cc1nc(NC(=O)c2ccco2)sc1-c1csc(Nc2ccc(Cl)cc2Cl)n1 ... 1.56 µM (active)
O=C(O)CCC(=O)NCCc1c(/C=C2/C(=O)NC(=S)N(Cc3ccc(F)cc3)C2=O)[nH]c2ccccc12 ... 1.42 µM (active)
Cc1cc(C)n2c(SC/C(O)=C(\C#N)c3nc4ccccc4[nH]3)nnc2n1 ... 1.15 µM (active)

Notebook: pull reported IC50 for Induced myeloid leukemia cell differentiation protein Mcl-1 (Homo sapiens), entry O=C1/C(=C/c2ccco2)SC(=S)N1c1cccnc1 3.16 µM (not active)

----------
target: Dual specificity tyrosine-phosphorylation-regulated kinase 1A (Rattus norvegicus, UniProt Q63470); format: biochemical, Homo sapiens
Active and inactive are the calls of the source.
AC50 values for the compounds below.

CC(=O)Nc1nc(C)c(-c2csc(Nc3ccc(O)cc3)n2)s1 ... 0.988 µM (active)

Which value of AC50 has been reported for COC(=O)c1cc(C)nc2c1C(=O)C(=O)C=C2N1CCOCC1 in the records? 0.983 µM (active)

----------
Biological target: Sentrin-specific protease 7 (Homo sapiens, UniProt Q9BQF6);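 further: Luminescence-based dose-response confirmation of ultra-high-throughput screening hits, measuring inhibition of SENP7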
Sequence (Q9BQF6 whole entry): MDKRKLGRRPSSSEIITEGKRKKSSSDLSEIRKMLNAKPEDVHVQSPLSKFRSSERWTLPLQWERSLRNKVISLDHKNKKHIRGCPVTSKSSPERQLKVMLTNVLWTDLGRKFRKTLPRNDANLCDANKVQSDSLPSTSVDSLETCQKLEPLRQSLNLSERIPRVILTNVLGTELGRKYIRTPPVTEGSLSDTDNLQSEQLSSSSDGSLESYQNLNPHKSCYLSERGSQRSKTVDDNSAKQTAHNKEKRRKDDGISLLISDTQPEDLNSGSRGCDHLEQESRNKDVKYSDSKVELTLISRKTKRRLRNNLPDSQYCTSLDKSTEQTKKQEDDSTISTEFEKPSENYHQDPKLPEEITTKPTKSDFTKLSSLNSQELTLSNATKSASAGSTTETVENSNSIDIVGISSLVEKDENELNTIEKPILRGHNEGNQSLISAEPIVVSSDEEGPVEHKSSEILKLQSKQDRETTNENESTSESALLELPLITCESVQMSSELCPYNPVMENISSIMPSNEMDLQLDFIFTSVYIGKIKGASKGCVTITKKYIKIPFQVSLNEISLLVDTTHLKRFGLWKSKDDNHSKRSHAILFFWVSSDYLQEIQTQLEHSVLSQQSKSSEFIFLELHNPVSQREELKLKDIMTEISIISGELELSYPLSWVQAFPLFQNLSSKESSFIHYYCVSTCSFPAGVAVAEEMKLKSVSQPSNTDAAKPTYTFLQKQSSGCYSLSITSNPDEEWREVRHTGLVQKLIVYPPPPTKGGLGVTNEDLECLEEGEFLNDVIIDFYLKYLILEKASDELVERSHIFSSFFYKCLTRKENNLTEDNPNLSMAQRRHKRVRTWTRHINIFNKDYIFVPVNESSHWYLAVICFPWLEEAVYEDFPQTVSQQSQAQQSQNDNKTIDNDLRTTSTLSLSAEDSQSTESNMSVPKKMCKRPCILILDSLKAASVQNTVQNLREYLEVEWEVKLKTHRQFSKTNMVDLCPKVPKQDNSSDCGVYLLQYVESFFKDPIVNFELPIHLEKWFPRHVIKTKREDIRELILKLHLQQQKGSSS
Type: functional
Activity calls are given as the source filed them.
MEASUREMENT KIND: IC50

Notebook: pull reported IC50 for Sentrin-specific protease 7 (Homo sapiens, UniProt Q9BQF6), entry CCOC(=O)C1=C(C)OC2(O)c3ccccc3C(=O)C12O (stereo not given) 3.27 µM (active)

Notebook: pull reported IC50 for Sentrin-specific protease 7 (Homo sapiens, UniProt Q9BQF6), entry Cc1c(NC(=O)c2ccccc2N)cccc1C(=O)O 2.73 µM (active)

Notebook: pull reported IC50 for Sentrin-specific protease 7 (Homo sapiens, UniProt Q9BQF6), entry Cc1c(/C=C/C(=O)c2ccccc2O)cnn1C 4.84 µM (active)

Notebook: pull reported IC50 for Sentrin-specific protease 7 (Homo sapiens, UniProt Q9BQF6), entry O=C(c1cccs1)c1coc2ccc(O)cc12 7.28 µM (active)

Notebook: pull reported IC50 for Sentrin-specific protease 7 (Homo sapiens, UniProt Q9BQF6), entry Cc1cccc(Nc2nc(-c3ccc(F)c(C)c3)cs2)n1 5.75 µM (active)
